TESTED ON: T1, GST-Sh2b SH2 domain (human, UniProt Q9NRF2 527-625)
T1 construct: SH2 domain of Sh2b; source: E. coli BL21, purified (glutathione sepharose, NAP-10)
ASSAY OVERVIEW: fluorescence polarisation; Rhodamine B-labelled peptide in solution with SH2 domain; Beacon 2000; as previously described [40]
CONDITION INFO: both partners purified
Non-standard residues stand in square brackets, D forms with d. No end group written: not given here. pY = N[C@@H](Cc1ccc(OP(=O)(O)O)cc1)C(=O)O
VALUE KIND: Kd

- BINDER: "SPGE[pY]VNIEFG (also: Rhodamine B label, site not given here, IRS-1 around Y896; source: synthetic peptide (FMOC chemistry), purified by LC/MS) [IRS-1 (Y896) phosphopeptide SPGEpYVNIEFG, Rhodamine B-labelled]"
  VALUE MEASURED: "3.58 µM"
